- experiment description: Clearance in Han Wistar rat at 0.73 micromol/kg, iv by LC-MS/MS analysis
- Assay type: ADME, organism-based
- setup conditions: in vivo, dose 0.73 µmol/kg
experimental endpoint: clearance (mL/min/kg)

(I) COc1cc(F)c(O[C@H]2CC[C@@](C)(C(=O)O)CC2)cc1C(=O)N[C@H]1[C@@H]2CC[C@@H](C2)[C@H]1C(=O)Nc1ccc(F)c(S(F)(F)(F)(F)F)c1
(II) COc1cc(F)c(O[C@H]2CC[C@@](C)(C(=O)O)CC2)cc1C(=O)N[C@@H]1[C@H]2CC[C@H](C2)[C@@H]1C(=O)Nc1ccc(F)c(S(F)(F)(F)(F)F)c1
Between I and II , which one has the lower reported clearance value? Lab note: record the label of whichever item you select.
I
(I: 14 mL/min/kg, II: 38 mL/min/kg)

---

- experiment description: Oral bioavailability in Han Wistar rat at 1.52 micromol/kg by LC-MS/MS analysis
- Type: ADME, organism-based
- setup conditions: in vivo, 1.52 µmol/kg
experimental endpoint: bioavailability (%)
Please give a number only; it is taken to be in %.

Fill in bioavailability for record "COc1cc(F)c(O[C@H]2CC[C@@H](C(=O)O)CC2)cc1C(=O)N[C@@H]1[C@H]2CC[C@H](C2)[C@@H]1C(=O)Nc1cccc(S(=O)(=O)C(F)(F)F)c1"
2.6

---

- assay system: Voltage-gated inwardly rectifying potassium channel KCNH2 (Homo sapiens)
- Sequence (Q12809 whole entry): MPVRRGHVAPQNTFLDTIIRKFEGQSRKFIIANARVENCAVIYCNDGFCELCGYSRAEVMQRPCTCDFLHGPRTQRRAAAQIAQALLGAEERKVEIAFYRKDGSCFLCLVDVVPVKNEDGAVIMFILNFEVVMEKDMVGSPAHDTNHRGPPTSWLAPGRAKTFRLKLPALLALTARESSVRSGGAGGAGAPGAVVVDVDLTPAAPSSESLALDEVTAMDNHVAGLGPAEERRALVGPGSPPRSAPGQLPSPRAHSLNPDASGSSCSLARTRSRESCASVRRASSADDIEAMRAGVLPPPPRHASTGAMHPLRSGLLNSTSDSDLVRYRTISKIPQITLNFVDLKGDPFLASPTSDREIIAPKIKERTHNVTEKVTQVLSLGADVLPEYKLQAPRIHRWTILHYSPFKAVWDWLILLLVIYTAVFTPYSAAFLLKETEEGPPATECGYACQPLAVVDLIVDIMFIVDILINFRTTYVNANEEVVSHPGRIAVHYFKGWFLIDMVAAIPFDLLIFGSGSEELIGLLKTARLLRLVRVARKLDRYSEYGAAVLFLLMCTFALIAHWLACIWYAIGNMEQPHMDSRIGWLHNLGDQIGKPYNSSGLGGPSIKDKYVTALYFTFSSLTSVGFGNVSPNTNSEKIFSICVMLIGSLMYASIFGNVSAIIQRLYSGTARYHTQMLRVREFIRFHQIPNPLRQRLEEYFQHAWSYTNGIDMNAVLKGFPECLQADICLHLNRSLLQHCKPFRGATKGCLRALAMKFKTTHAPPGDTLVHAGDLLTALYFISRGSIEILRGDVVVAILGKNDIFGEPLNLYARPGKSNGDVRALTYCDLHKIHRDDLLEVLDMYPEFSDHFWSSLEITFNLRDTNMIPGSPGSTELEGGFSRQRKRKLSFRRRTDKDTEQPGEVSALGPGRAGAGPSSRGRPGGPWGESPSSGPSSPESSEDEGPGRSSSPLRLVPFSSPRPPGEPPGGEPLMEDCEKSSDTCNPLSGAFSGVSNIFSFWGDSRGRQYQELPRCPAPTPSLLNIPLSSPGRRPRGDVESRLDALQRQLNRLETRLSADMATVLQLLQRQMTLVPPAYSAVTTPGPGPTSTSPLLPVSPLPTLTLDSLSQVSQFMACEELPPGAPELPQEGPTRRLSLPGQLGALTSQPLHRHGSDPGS
- experiment description: Inhibition of human ERG by automated electrophysiology recording
- Format: toxicity
experimental endpoint: pIC50
The quantity pIC50 is defined as the negative base-10 logarithm of the molar concentration.

Item "COc1cc(F)c(O[C@H]2CC[C@@](C)(C(=O)O)CC2)cc1C(=O)N[C@H]1[C@@H]2CC[C@@H](C2)[C@H]1C(=O)Nc1ccc(F)c(S(F)(F)(F)(F)F)c1" : provide pIC50
4.48

---

- experiment description: Metabolic stability in human liver microsomes assessed as unbound intrinsic clearance at 1 uM incubated for 30 mins in presence of NADPH by LC-MS/MS analysis
- Type: ADME, Microsome
- setup conditions: 0.5 h
experimental endpoint: CL free

Sample answers from the record:
Determine from records and report CL free for "COc1cc(F)c(-c2ccc(C(=O)O)cc2)cc1C(=O)N[C@H]1[C@@H](C(=O)Nc2cccc(S(=O)(=O)C(F)(F)F)c2)[C@@H]2C=C[C@H]1C2"
100 µL/min/mg

Consider the compound COc1cc(F)c(-c2ncc(C(=O)O)s2)cc1C(=O)N[C@H]1[C@@H](C(=O)Nc2cccc(S(=O)(=O)C(F)(F)F)c2)[C@@H]2C=C[C@H]1C2 (racemic) and give its recorded CL free.
65 µL/min/mg

Please indicate CL free recorded for "COc1cc(F)c(-c2ccc(C(=O)O)cc2)cc1C(=O)Nc1ccccc1C(=O)Nc1cccc(S(=O)(=O)C(F)(F)F)c1"
< 333 µL/min/mg

Name the recorded CL free of the compound listed here: COc1ccccc1C(=O)N[C@@H]1CCC[C@@H]1C(=O)Nc1cccc(S(=O)(=O)C(F)(F)F)c1 (racemic)
2.4 10^3uL/min/mg

Note down CL free recorded for COc1cc(F)ccc1C(=O)N[C@@H]1[C@H](C(=O)Nc2cccc(S(=O)(=O)C(F)(F)F)c2)[C@H]2C=C[C@@H]1C2 (racemic)
> 14 10^3uL/min/mg

Dear colleague, please send me the reported CL free for COc1cc(F)c(-c2ccccc2)cc1C(=O)N[C@@H]1[C@H](C(=O)Nc2cccc(S(=O)(=O)C(F)(F)F)c2)[C@H]2C=C[C@@H]1C2 (racemic) when you can.
92 10^3uL/min/mg

Return the recorded CL free value; entry: "COc1cc(F)c(-c2cccc(C(=O)O)c2)cc1C(=O)N[C@H]1[C@@H](C(=O)Nc2cccc(S(=O)(=O)C(F)(F)F)c2)[C@@H]2C=C[C@H]1C2"
< 64 µL/min/mg

Check the records and state CL free for COc1cc(F)c(F)cc1C(=O)N[C@@H]1[C@H](C(=O)Nc2cccc(S(=O)(=O)C(F)(F)F)c2)[C@H]2C=C[C@@H]1C2 (racemic)
> 25 10^3uL/min/mg

Others:
Give CL free for COc1cc(F)c(-c2ccc(CC(=O)O)cc2)cc1C(=O)N[C@H]1[C@@H](C(=O)Nc2cccc(S(=O)(=O)C(F)(F)F)c2)[C@@H]2C=C[C@H]1C2 (racemic)
111 µL/min/mg

Specify reported CL free for the compound shown: "COc1ccccc1C(=O)N[C@H]1[C@@H](C(=O)Nc2cccc(S(=O)(=O)C(F)(F)F)c2)[C@@H]2C=C[C@H]1C2"
> 29 10^3uL/min/mg

Give a short answer stating reported CL free for COc1ccccc1C(=O)N[C@@H]1CCCC[C@@H]1C(=O)Nc1cccc(S(=O)(=O)C(F)(F)F)c1 (racemic) .
6.3 10^3uL/min/mg

Identify measured CL free corresponding to COc1ccccc1C(=O)N[C@H]1CN(C)C[C@H]1C(=O)Nc1cccc(S(=O)(=O)C(F)(F)F)c1 (racemic)
0.98 10^3uL/min/mg

Quote CL free reported for "COc1ccccc1C(=O)Nc1ccccc1C(=O)Nc1cccc(S(=O)(=O)C(F)(F)F)c1" please.
3.7 10^3uL/min/mg

---

- assay system: Relaxin receptor 1 (Homo sapiens)
- Sequence (whole entry): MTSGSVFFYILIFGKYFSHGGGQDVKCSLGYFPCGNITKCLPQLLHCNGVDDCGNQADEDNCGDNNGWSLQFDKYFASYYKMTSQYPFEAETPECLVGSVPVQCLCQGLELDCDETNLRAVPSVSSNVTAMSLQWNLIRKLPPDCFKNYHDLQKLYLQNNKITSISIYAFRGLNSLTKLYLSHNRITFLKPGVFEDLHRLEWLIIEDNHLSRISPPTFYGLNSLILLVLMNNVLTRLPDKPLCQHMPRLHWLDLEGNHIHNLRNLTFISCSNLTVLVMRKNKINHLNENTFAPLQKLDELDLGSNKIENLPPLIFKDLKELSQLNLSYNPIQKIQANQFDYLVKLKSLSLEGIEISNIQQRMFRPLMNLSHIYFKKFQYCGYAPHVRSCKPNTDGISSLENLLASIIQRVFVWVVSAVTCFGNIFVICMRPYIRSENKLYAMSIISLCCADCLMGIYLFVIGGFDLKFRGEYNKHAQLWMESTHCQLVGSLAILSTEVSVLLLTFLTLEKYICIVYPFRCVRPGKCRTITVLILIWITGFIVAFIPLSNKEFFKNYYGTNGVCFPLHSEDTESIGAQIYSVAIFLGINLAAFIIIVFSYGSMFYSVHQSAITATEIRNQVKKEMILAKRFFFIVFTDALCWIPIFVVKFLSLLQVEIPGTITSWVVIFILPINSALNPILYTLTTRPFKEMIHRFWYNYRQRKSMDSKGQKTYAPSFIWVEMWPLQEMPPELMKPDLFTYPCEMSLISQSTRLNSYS
- experiment description: Agonist activity at human RXFP1 expressed in T-Rex-CHO-K1 cells assessed as stimulation of cAMP production by measuring maximal efficacy at 50 uM incubated for 45 mins by HTRF assay relative to control
- Assay type: functional, cell-based
- setup conditions: filed as agonist
experimental endpoint: Emax (%)

Fetch value of Emax on Relaxin receptor 1 (Homo sapiens) for "COc1cc(F)c(O[C@H]2CC[C@@](C)(C(=O)O)CC2)cc1C(=O)N[C@@H]1COC[C@@H]1C(=O)Nc1cccc(S(=O)(=O)C(F)(F)F)c1" .
104

Would you please give the reported Emax of "COc1cc(F)c(O[C@H]2CC[C@@](C)(C(=O)O)CC2)cc1C(=O)N[C@@H]1CCC[C@@H]1C(=O)Nc1ccc(F)c(S(F)(F)(F)(F)F)c1" with Relaxin receptor 1 (Homo sapiens)?
105

Under Relaxin receptor 1 (Homo sapiens), report Emax for "COc1cc(F)c(O[C@H]2CC[C@@H](C(=O)O)CC2)cc1C(=O)N[C@H]1[C@@H](C(=O)Nc2cccc(S(=O)(=O)C(F)(F)F)c2)[C@@H]2C=C[C@H]1C2"
109

Send back Relaxin receptor 1 (Homo sapiens) Emax of "COc1cc(F)c(-c2ccc(S(N)(=O)=O)cc2)cc1C(=O)N[C@@H]1[C@H]2CC[C@H](C2)[C@@H]1C(=O)Nc1cccc(S(=O)(=O)C(F)(F)F)c1" only.
109

State Emax on Relaxin receptor 1 (Homo sapiens). Entry: COc1cc(F)c(C(=O)N2CCC(C)(C(=O)O)CC2)cc1C(=O)N[C@H]1[C@@H](C(=O)Nc2cccc(S(=O)(=O)C(F)(F)F)c2)[C@@H]2C=C[C@H]1C2 (racemic)
111

---

- experiment description: Metabolic stability in cryopreserved human hepatocytes assessed as unbound intrinsic clearance measured per 10^6 cells at 1 uM measured after 120 mins by LC-MS/MS analysis
- Type: ADME, cell-based, Hepatocyte
- setup conditions: 2 h
experimental endpoint: CL free (µL/min)

Supply measured CL free of "COc1cc(F)c(O[C@H]2CC[C@@](C)(C(=O)O)CC2)cc1C(=O)N[C@@H]1CCC[C@@H]1C(=O)Nc1ccc(F)c(S(F)(F)(F)(F)F)c1" in your reply.
283

(1) COc1cc(F)c(O[C@H]2CC[C@@H](C(=O)O)CC2)cc1C(=O)N[C@@H]1[C@H]2CC[C@H](C2)[C@@H]1C(=O)Nc1cccc(C(F)F)c1
(2) COc1cc(F)c(O[C@H]2CC[C@@](C)(C(=O)O)CC2)cc1C(=O)N[C@@H]1COC[C@@H]1C(=O)Nc1cccc(S(=O)(=O)C(F)(F)F)c1
Given the two records 1 and 2 , choose the one whose CL free value is lower. Select an item and report its label.
2
(2: 23 µL/min, 1: 51 µL/min)
